Taken from ChEMBL document CHEMBL4346705.

Test system: OVCAR-5
Test: Antiproliferative activity against human OVCAR5 cells assessed as cell viability at 10^-5 M incubated for 48 hrs by sulforhodamine B assay relative to control
Assay type: functional
Conditions: OVCAR-5, 48 h, read-out: Activity
Answer each item with its documented viability at 10 µM.
Reply with just the number (in %).

Consider the molecule shown here: CCOc1cc2c(c(O)c1OCC)C(=O)NC1C2CC(O)C(O)C1O (racemic) What is its recorded viability at 10 µM?
104

Consider the molecule shown here: CCOc1c(OC)cc2c(c1O)C(=O)NC1C2CC(O)C(O)C1O (racemic) What is its recorded viability at 10 µM?
98.7

Consider the molecule shown here: COc1cc2c(c(OC)c1OC)C(=O)NC1C2CC(O)C(O)C1O (racemic) What is its recorded viability at 10 µM?
106

Consider the molecule shown here: O=C1NC2C(CC(O)C(O)C2O)c2cc3c(c(O)c21)OCCO3 (racemic) What is its recorded viability at 10 µM?
3

Consider the molecule shown here: CCOc1cc2c(c(OCC)c1OCC)C(=O)NC1C2CC(O)C(O)C1O (racemic) What is its recorded viability at 10 µM?
104

Consider the molecule shown here: COc1c2c(cc3c1C(=O)NC1C3CC(O)C(O)C1O)OCCO2 (racemic) What is its recorded viability at 10 µM?
105

Consider the molecule shown here: O=C1NC2C(CC(O)C(O)C2O)c2cc3c(c(O)c21)OCO3 (racemic) What is its recorded viability at 10 µM?
-13.4

---

Answer each item with its documented viability at 10 µM.
Tested on: UACC-257
Test: Antiproliferative activity against human UACC257 cells assessed as cell viability at 10^-5 M incubated for 48 hrs by sulforhodamine B assay relative to control
Assay type: functional
Settings: UACC-257, 48 h, read-out: Activity
Please answer in the form of a number followed by its unit of measurement.

Consider the compound shown here: O=C1NC2C(CC(O)C(O)C2O)c2cc3c(cc21)OCCO3 (racemic) What is its recorded viability at 10 µM?
107%

Consider the compound shown here: CCOc1cc2c(c(OCC)c1OCC)C(=O)NC1C2CC(O)C(O)C1O (racemic) What is its recorded viability at 10 µM?
101%

Consider the compound shown here: CCOc1c(OC)cc2c(c1O)C(=O)NC1C2CC(O)C(O)C1O (racemic) What is its recorded viability at 10 µM?
100%

Consider the compound shown here: CCOc1cc2c(cc1OCC)C1CC(O)C(O)C(O)C1NC2=O (racemic) What is its recorded viability at 10 µM?
97.5%

Consider the compound shown here: CCOc1cc2c(c(OC)c1OCC)C(=O)NC1C2CC(O)C(O)C1O (racemic) What is its recorded viability at 10 µM?
98.2%

Consider the compound shown here: COc1cc2c(c3c1OCCO3)C(=O)NC1C2CC(O)C(O)C1O (racemic) What is its recorded viability at 10 µM?
97.5%

Consider the compound shown here: O=C1NC2C(CC(O)C(O)C2O)c2cc3c(c(O)c21)OCCO3 (racemic) What is its recorded viability at 10 µM?
-22.2%
